Test system: SOS1 function in cells: cellular pERK in PC-9 cells (EGFR Ex19Del)
Test: pERK potency assay in PC-9 cells (AlphaLISA SureFire Ultra p-ERK1/2)
Format: cell-based
Settings: 1 hour incubation
Description: The purpose of this assay is tomeasure the ability of test compounds to inhibit SOS1 function in cells. SOS1 activates RAS proteins by catalyzing the conversion of RAS-GDP to RAS-GTP in response to receptor tyrosine kinase activation. […] Cellular pERK level was determined using the AlphaLISA SureFire Ultra p-ERK1/2 Assay Kit (PerkinElmer). […] Signal was read on an Envision plate reader (PerkinElmer) using standard AlphaLISA settings. […]
List of pIC50 values.
To interpret pIC50, take it as minus log10 of a concentration measured in moles per litre.

Example compounds with recorded pIC50:
COMPOUND | TESTED SYSTEM | pIC50
COC1(c2cc3c(N[C@H](C)c4cccc(C(F)F)c4F)ncnc3n(C)c2=O)CCS(=O)(=O)C1 (stereo partly drawn) [Example 32-74] | SOS1 function in cells: cellular pERK in PC-9 cells (EGFR Ex19Del) | 6.70
CO[C@@]1(c2cc3c(N[C@H](C)c4cccc(C(F)F)c4F)nc(C)nc3n(C)c2=O)CCN(C(C)=O)C1 | SOS1 function in cells: cellular pERK in PC-9 cells (EGFR Ex19Del) | 7.11
CO[C@@]1(c2cc3c(N[C@H](C)c4cccc(C(F)F)c4C)ncnc3n(C)c2=O)CCN(C(C)=O)C1 | SOS1 function in cells: cellular pERK in PC-9 cells (EGFR Ex19Del) | 7.77

Problem: Given the entry C[C@@H](Nc1ncnc2c1cc(Cc1ccccc1)c(=O)n2C)c1cccc(C(F)(F)F)c1 , report its measured pIC50.
Result: 5.58

###

test system: SOS1 function in cells: cellular pERK in PC-9 cells (EGFR Ex19Del); assay: pERK potency assay in PC-9 cells (AlphaLISA SureFire Ultra p-ERK1/2); assay type: cell-based; details: 1 hour incubation
ATTRIBUTE MEASURED: pIC50
To interpret pIC50, take it as minus log10 of a concentration measured in moles per litre.

COMPOUND | pIC50
COC1(c2cc3c(N[C@H](C)c4cccc(C(F)F)c4F)ncnc3n(C)c2=O)CCS(=O)(=O)C(C)C1 (some centres unmarked) | 6.89

Problem: Given the entry CC(=O)N1CCC(c2cc3c(N[C@H](C)c4cccc(C(F)F)c4F)ncnc3n(C)c2=O)CC1 , report its measured pIC50.
Result: 6.84

Problem: Given the entry Cc1nc(N[C@H](C)c2cccc(C(F)F)c2F)c2cc(C3=CCCOC3)c(=O)n(CCO)c2n1 , report its measured pIC50.
Result: 6.46

Problem: Given the entry Cc1nc(N[C@H](C)c2cccc(C(F)F)c2F)c2cc(C3(O)CCN(C)CC3)c(=O)n(C)c2n1 , report its measured pIC50.
Result: 6.24

###

target: SOS1 nucleotide exchange of wild-type KRAS (SOS1 catalytic domain residues 564-1049; KRAS residue 1-169) (Homo sapiens); test: Inhibition of SOS1 nucleotide exchange activity of KRAS (TR-FRET); type: biochemical; details: SOS1 nucleotide exchange of wild-type KRAS; three replicates; four-parameter logistic fit; read-out: TR-FRET IC50
Sequence (Q07889 564-1049): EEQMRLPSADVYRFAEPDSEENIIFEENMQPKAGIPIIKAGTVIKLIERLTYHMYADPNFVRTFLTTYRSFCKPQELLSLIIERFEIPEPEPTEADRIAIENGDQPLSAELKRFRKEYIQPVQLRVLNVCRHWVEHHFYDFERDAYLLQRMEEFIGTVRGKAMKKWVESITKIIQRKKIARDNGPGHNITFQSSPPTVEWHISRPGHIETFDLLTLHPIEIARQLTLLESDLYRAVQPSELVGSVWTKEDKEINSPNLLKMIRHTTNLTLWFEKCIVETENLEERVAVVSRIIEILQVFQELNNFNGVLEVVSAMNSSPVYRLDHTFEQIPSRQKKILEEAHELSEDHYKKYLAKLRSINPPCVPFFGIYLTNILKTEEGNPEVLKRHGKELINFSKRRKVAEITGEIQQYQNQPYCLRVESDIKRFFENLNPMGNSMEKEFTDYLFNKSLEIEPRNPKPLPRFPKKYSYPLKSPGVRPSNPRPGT
ATTRIBUTE MEASURED: log10 IC50 (log10 of the value in nM)
In our notation, the value equals log10 of IC50 in nM.

COMPOUND | ASSAY RESULT
C[C@@H](Nc1ncnc2c1cc(C1=CC[S+]([O-])CC1)c(=O)n2C)c1cccc(C(F)F)c1F (stereo partly drawn) | 2.47
C[C@@H](Nc1ncnc2c1cc(N1CCOCC1)c(=O)n2C)c1cc(N)cc(C(F)(F)F)c1 | 1.13
C[C@@H](Nc1ncnc2c1cc(N1CCOCC1)c(=O)n2C1CC1)c1cccc(C(F)(F)F)c1 | 1.52
Cc1nc(N[C@H](C)c2cccc(C(F)(F)F)c2)c2cc(N3CCOCC3)c(=O)n(C)c2n1 | 2.25
C[C@@H](Nc1ncnc2c1cc(C1=CCS(=N)(=O)CC1)c(=O)n2C)c1cccc(C(F)F)c1F (stereo partly drawn) | 1.32

Problem: Given the entry CC(=O)N1CCC(c2cc3c(N[C@H](C)c4cc(N)cc(C(F)(F)F)c4F)ncnc3n(C)c2=O)CC1 , report its measured log10 IC50.
Result: 1.09

Problem: Given the entry CN=S1(=O)CC=C(c2cc3c(N[C@H](C)c4cccc(C(F)F)c4F)ncnc3n(C)c2=O)CC1 (stereo partly drawn) , report its measured log10 IC50.
Result: 1.13

Problem: Given the entry C[C@@H](Nc1ncnc2c1cc(N1CCOCC1)c(=O)n2C)c1cccc(C(F)(F)CO)c1 , report its measured log10 IC50.
Result: 1.11

Problem: Given the entry C[C@@H](Nc1ncnc2c1cc(C1(O)CCS(=O)(=O)CC1)c(=O)n2C)c1cccc(C(F)F)c1F , report its measured log10 IC50.
Result: 1.31

Problem: Given the entry Cc1nc(N[C@H](C)c2cccc(C(F)F)c2F)c2cc(C(=O)N3CCOCC3)c(=O)n(C)c2n1 , report its measured log10 IC50.
Result: 1.85

Problem: Given the entry Cc1nc(N[C@H](C)c2cccc(C(F)F)c2F)c2cc(C3CCN(C)CC3F)c(=O)n(C)c2n1 (stereo partly drawn) , report its measured log10 IC50.
Result: 0.76

Problem: Given the entry C[C@@H](Nc1ncnc2c1cc(Sc1ccccc1)c(=O)n2C)c1cccc(C(F)F)c1F , report its measured log10 IC50.
Result: 4.04

Problem: Given the entry C[C@@H](Nc1ncnc2c1cc(C(=O)N1CC3CCC1CO3)c(=O)n2C)c1cccc(C(F)F)c1F (stereo partly drawn) , report its measured log10 IC50.
Result: 1.90

Problem: Given the entry C[C@@H](Nc1ncnc2c1cc(C1CC3(C1)CS(=O)(=O)C3)c(=O)n2C)c1cccc(C(F)F)c1F , report its measured log10 IC50.
Result: 1.47

Problem: Given the entry C[C@@H](Nc1ncnc2c1cc(C(=O)N1CC3CCC(C1)O3)c(=O)n2C)c1cccc(C(F)F)c1F , report its measured log10 IC50.
Result: 1.82
